Where these numbers come from: paper PMC9966414

IC50: recorded values
Molecular target: Kir6.2/SUR2A (Homo sapiens, UniProt O60706+Q14654)
Construct: full-length human subunits co-expressed stably in HEK293 cells; GenScript vectors; four Kir6.2 plus four SUR2A
Sequence (Q14654 whole entry): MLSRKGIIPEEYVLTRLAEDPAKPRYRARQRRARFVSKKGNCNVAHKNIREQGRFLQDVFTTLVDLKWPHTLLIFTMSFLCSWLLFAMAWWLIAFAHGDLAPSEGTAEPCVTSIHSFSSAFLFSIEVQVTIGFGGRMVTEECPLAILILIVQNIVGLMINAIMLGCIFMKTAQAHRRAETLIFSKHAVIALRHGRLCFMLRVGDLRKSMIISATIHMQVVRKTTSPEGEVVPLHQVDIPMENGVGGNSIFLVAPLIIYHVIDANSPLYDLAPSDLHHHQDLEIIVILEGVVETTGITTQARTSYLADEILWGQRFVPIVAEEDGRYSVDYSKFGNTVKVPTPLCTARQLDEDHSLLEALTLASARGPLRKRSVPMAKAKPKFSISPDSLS
Sequence (O60706 whole entry): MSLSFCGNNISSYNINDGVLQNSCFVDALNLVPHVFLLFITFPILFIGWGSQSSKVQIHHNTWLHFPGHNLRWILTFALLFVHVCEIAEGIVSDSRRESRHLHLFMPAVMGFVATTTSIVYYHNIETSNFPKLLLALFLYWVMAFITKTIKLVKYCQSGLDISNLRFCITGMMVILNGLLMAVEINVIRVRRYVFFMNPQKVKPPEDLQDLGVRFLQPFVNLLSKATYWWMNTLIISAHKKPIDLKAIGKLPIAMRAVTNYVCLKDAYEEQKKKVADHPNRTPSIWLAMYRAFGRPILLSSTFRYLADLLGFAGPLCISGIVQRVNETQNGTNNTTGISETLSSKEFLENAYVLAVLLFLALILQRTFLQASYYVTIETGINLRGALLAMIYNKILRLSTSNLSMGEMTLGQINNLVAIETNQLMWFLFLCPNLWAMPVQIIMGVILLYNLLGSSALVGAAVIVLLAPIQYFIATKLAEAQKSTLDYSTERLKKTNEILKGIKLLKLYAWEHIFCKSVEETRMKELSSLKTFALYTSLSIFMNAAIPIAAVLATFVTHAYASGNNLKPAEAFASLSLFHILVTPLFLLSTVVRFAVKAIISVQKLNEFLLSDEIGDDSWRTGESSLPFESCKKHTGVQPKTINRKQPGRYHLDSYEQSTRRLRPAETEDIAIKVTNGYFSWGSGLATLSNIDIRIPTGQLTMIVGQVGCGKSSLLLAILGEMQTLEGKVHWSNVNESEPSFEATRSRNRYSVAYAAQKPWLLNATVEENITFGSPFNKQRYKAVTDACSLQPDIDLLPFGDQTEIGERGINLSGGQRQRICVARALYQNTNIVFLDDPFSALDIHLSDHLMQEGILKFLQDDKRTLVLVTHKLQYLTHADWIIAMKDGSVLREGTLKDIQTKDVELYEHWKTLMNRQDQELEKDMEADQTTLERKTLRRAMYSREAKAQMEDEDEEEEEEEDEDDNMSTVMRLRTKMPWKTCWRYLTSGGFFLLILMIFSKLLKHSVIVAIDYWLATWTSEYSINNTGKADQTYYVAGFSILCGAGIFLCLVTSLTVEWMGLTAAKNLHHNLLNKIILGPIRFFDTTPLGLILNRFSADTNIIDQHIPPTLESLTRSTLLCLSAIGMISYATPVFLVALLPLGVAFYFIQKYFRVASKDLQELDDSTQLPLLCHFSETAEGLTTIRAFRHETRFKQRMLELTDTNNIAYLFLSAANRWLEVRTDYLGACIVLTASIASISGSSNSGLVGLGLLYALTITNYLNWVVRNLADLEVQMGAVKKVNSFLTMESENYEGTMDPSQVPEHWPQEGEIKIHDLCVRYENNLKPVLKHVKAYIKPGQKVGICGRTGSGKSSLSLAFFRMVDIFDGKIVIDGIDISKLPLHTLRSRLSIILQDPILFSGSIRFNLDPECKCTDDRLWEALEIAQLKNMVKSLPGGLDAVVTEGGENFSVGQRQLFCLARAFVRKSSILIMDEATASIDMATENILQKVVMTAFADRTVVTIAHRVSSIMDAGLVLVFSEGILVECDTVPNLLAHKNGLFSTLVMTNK
Assay: thallium-flux fluorescence assay (FLIPR, BTC/AM)
assay.metric: IC50 (µM)

{"compound": "CCCCNC(=O)NS(=O)(=O)c1ccc(C)cc1 [Tolbutamide]", "target": "Kir6.2/SUR2A (Homo sapiens, UniProt O60706+Q14654)", "assay.metric": "IC50", "measured.result": 71}
{"compound": "CCOc1cc(CC(=O)N[C@@H](CC(C)C)c2ccccc2N2CCCCC2)ccc1C(=O)O [Repaglinide]", "target": "Kir6.2/SUR2A (Homo sapiens, UniProt O60706+Q14654)", "assay.metric": "IC50", "measured.result": 0.00094}
{"compound": "COc1ccc(Cl)cc1C(=O)NCCc1ccc(S(=O)(=O)NC(=O)NC2CCCCC2)cc1 [Glibenclamide]", "target": "Kir6.2/SUR2A (Homo sapiens, UniProt O60706+Q14654)", "assay.metric": "IC50", "measured.result": 0.0099}
{"compound": "COc1ccc2c(c1)C(=O)N(CCc1ccc(S(=O)(=O)NC(=O)NC3CCCCC3)cc1)C(=O)C2(C)C", "target": "Kir6.2/SUR2A (Homo sapiens, UniProt O60706+Q14654)", "assay.metric": "IC50", "measured.result": 0.78}
{"compound": "CCC1=C(C)CN(C(=O)NCCc2ccc(S(=O)(=O)NC(=O)N[C@H]3CC[C@H](C)CC3)cc2)C1=O [Glimepiride]", "target": "Kir6.2/SUR2A (Homo sapiens, UniProt O60706+Q14654)", "assay.metric": "IC50", "measured.result": 0.017}
{"compound": "Cc1c(C)c2c(c(C)c1O)CCC(C)(COc1ccc(CC3SC(=O)NC3=O)cc1)O2 (centres unmarked)", "target": "Kir6.2/SUR2A (Homo sapiens, UniProt O60706+Q14654)", "assay.metric": "IC50", "measured.result": 30}
{"compound": "Cc1ccc(S(=O)(=O)NC(=O)NN2CC3CCCC3C2)cc1 (centres unmarked) [Gliclazide]", "target": "Kir6.2/SUR2A (Homo sapiens, UniProt O60706+Q14654)", "assay.metric": "IC50", "measured.result": 55}
{"compound": "CC(C)[C@H]1CC[C@H](C(=O)N[C@H](Cc2ccccc2)C(=O)O)CC1 [Nateglinide]", "target": "Kir6.2/SUR2A (Homo sapiens, UniProt O60706+Q14654)", "assay.metric": "IC50", "measured.result": 16}

----------
Biological target: Kir6.2/SUR1 (Homo sapiens, UniProt Q09428+Q14654)
Construct: full-length human subunits co-expressed stably in HEK293 cells; GenScript vectors; four Kir6.2 plus four SUR1
Sequence (Q14654 whole entry): as the sequence (Q14654 whole entry) above
Sequence (Q09428 whole entry): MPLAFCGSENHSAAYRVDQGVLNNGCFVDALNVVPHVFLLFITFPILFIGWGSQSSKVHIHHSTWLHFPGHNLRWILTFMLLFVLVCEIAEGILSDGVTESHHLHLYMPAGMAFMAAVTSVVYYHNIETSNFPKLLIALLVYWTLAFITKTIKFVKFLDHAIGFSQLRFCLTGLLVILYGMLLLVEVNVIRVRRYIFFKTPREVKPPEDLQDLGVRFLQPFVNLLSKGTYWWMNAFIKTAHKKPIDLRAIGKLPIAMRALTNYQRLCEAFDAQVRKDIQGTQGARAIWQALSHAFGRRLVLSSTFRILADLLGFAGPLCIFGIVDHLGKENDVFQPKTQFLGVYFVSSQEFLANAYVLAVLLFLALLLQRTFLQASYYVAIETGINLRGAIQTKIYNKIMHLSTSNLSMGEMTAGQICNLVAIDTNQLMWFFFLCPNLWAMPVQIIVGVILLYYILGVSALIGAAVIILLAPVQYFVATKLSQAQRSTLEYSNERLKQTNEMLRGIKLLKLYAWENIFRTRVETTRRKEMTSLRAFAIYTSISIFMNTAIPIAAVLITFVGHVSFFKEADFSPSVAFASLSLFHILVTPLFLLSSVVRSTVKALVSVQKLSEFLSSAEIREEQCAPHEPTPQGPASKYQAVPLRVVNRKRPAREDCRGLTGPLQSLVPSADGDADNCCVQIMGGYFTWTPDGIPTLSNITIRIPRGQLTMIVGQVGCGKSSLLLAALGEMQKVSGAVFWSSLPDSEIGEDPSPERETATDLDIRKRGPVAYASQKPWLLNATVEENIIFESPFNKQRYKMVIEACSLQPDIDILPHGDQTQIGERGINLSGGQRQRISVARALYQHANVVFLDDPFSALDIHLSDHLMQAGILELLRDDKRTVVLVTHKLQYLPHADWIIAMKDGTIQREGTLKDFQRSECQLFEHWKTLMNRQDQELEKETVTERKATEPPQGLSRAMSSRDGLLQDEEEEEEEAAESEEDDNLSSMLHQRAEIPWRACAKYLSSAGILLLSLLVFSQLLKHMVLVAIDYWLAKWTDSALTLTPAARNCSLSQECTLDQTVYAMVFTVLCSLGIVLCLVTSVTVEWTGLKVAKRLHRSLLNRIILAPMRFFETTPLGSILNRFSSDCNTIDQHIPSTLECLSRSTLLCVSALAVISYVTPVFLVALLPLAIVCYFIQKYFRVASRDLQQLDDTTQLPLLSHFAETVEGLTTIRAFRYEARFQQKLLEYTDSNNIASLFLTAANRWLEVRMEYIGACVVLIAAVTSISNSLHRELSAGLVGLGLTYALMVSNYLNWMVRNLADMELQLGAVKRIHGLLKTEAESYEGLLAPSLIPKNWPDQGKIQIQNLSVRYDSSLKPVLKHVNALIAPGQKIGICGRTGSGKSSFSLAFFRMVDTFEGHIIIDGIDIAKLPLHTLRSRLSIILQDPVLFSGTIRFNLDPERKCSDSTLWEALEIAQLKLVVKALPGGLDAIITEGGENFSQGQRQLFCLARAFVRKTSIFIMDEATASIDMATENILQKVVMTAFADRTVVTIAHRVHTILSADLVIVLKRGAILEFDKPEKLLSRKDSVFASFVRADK
Test: thallium-flux fluorescence assay (FLIPR, BTC/AM)
pEC50: −log10 of the molar value.

{"compound": "O=C1CCCC2=C1[C@H](c1ccc(F)c(Br)c1)C1=C(CCS1(=O)=O)N2 [A-278637]", "pEC50": "< 4.52"}
{"compound": "CC(N/C(=N\\C#N)Nc1ccncc1)C(C)(C)C (centres unmarked) [Pinacidil]", "pEC50": "< 4.52"}
{"compound": "CC(O)(C(=O)Nc1ccc(S(=O)(=O)c2ccccc2)cc1)C(F)(F)F (centres unmarked) [ZM226600]", "pEC50": "< 4.52"}
{"compound": "CC(=O)N(O)[C@@H]1c2cc(C#N)ccc2OC(C)(C)[C@H]1O [Y-26763]", "pEC50": 5.39}
{"compound": "CCC(C)(C)NC(=NC#N)Nc1cccnc1 [P1075]", "pEC50": "< 4.52"}
